target: human glucagon receptor (human) (UniProt P47871); assay: cell-based or functional assay
Sequence (P47871 26-477): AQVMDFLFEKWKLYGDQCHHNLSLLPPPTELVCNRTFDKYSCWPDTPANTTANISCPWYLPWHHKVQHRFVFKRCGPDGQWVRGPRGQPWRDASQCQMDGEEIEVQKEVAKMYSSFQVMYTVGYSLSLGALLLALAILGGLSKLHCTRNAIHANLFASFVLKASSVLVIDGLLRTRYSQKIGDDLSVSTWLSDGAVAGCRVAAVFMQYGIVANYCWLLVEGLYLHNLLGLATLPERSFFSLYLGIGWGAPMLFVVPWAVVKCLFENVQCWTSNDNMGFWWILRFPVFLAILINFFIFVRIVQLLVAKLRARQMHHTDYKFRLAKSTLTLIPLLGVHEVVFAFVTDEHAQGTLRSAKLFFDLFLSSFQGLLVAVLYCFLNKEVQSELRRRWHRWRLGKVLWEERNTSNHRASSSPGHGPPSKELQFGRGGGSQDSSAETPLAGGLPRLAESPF
Binning rule for recorded cAMP Rel EC50 (in the presence of 1% HSA): L: < 600 nM; M: ≥ 600 nM and < 1000 nM; H: ≥ 1000 nM

BINDER: YXQGTFTSDFSKXLDKKAQXAFIEYLLAGGPSSGAPPPSGS (synthetic construct; SITE 2: note = 2-Aminoisobutyric Acid; SITE 13: note = alpha-methyl-leucine; SITE 17: note = Lysine is chemically modified through conjugation of the epsilon-amino group of the Lysine side chain with (2-[2-(2-Amino-ethoxy)-ethoxy]-acetyl)-(gamma-Glu)-CO-(CH2) 18-CO2H; SITE 20: n) [Example 14]
CAT: H
--
BINDER: YXQGTFTSDXSKXLDKKAQXAFIEYLIEXGESSGEPPPSGS (non-natural residues; C18 diacid-γGlu-AEEA on Lys; C-terminal amide; synthetic construct; SITE 2: note = 2-Aminoisobutyric Acid; SITE 10: note = 3-(4-Pyridyl)-L-alanine; SITE 13: note = alpha-methyl-leucine; SITE 17: note = Lysine is chemically modified through conjugation of the epsilon-amino group of the Lysine side chain with (2-[2-(2-Amino-ethoxy)-ethoxy]-acetyl)) [Example 282]
CAT: H
--
BINDER: YXQGTXTSDXXIXLDXKAQXEFIEXLIEGGPPSXEPPPXGE (non-natural residues, lysine acylation, C-terminal amide; synthetic construct; SITE 2: note = 2-Aminoisobutyric Acid; SITE 6: note = alpha-methyl-2-fluoro-L-phenylalanine; SITE 10: note = 3-(4-Pyridyl)-L-alanine; SITE 11: note = alpha-methyl-L-serine; SITE 13: note = alpha-methyl-leucine; SITE 16: note = L-ornithine; SITE 17: note = Lysine is chemically mo) [Example 1193]
CAT: L
--
BINDER: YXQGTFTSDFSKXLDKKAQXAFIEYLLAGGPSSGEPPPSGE (synthetic construct; SITE 2: note = 2-Aminoisobutyric Acid; SITE 13: note = alpha-methyl-leucine; SITE 17: note = Lysine is chemically modified through conjugation of the epsilon-amino group of the Lysine side chain with (2-[2-(2-Amino-ethoxy)-ethoxy]-acetyl)-(gamma-Glu)-CO-(CH2) 18-CO2H; SITE 20: n) [Example 2]
CAT: H
--
BINDER: YXQGTFTSDXSXXLDKKAQXAFIEYLLEAGPSSXAPPPSGT (Aib, 4Pal, Orn, αMeL, D-Ala; acylated Lys; C-terminal amide; synthetic construct; SITE 2: note = 2-Aminoisobutyric Acid; SITE 10: note = 3-(4-Pyridyl)-L-alanine; SITE 12: note = L-ornithine; SITE 13: note = alpha-methyl-leucine; SITE 17: note = Lysine is chemically modified through conjugation of the epsilon-amino group of the Lysine side chain with (2-[2-(2-) [Example 275]
CAT: M
--
BINDER: YXQGTFTSDFSXXLDKKAQXAFIEYLLEAGPSSGHPPPSGH (non-natural residues; acylated Lys; C-terminal amide; synthetic construct; SITE 2: note = 2-Aminoisobutyric Acid; SITE 12: note = L-ornithine; SITE 13: note = alpha-methyl-leucine; SITE 17: note = Lysine is chemically modified through conjugation of the epsilon-amino group of the Lysine side chain with (2-[2-(2-Amino-ethoxy)-ethoxy]-acetyl)2-(gamma-Glu)) [Example 255]
CAT: M
--
BINDER: YXQGTFTSDFSKXLDKKAQXAFIEYLLAGGPSSGEPPPSEGX (synthetic construct; SITE 2: note = 2-Aminoisobutyric Acid; SITE 13: note = alpha-methyl-leucine; SITE 17: note = Lysine is chemically modified through conjugation of the epsilon-amino group of the Lysine side chain with (2-[2-(2-Amino-ethoxy)-ethoxy]-acetyl)-(gamma-Glu)-CO-(CH2) 18-CO2H; SITE 20: n) [Example 32]
CAT: H
--
BINDER: YXQGTFTSDFSXXLDKKAQXAFIEWLLEAGSSSGAPPPSGT (C-terminal amide; lysine acylated with AEEA-γ-Glu-C18 diacid; synthetic construct; SITE 2: note = 2-Aminoisobutyric Acid; SITE 12: note = L-ornithine; SITE 13: note = alpha-methyl-leucine; SITE 17: note = Lysine is chemically modified through conjugation of the epsilon-amino group of the Lysine side chain with (2-[2-(2-Amino-ethoxy)-ethoxy]-acetyl)-(gamma-Glu)) [Example 263]
CAT: M
--
BINDER: YXQGTFTSDFSXXLDKKAQXAFIEWLLEGGHSSGAPPPSGH (Aib, Orn, αMeL; K acylated AEEA-γGlu-C18 diacid; C-terminal amide; synthetic construct; SITE 2: note = 2-Aminoisobutyric Acid; SITE 12: note = L-ornithine; SITE 13: note = alpha-methyl-leucine; SITE 17: note = Lysine is chemically modified through conjugation of the epsilon-amino group of the Lysine side chain with (2-[2-(2-Amino-ethoxy)-ethoxy]-acetyl)-(gamma-Glu)) [Example 269]
CAT: H
--
BINDER: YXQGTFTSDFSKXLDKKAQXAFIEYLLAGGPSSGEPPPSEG (synthetic construct; SITE 2: note = 2-Aminoisobutyric Acid; SITE 13: note = alpha-methyl-leucine; SITE 17: note = Lysine is chemically modified through conjugation of the epsilon-amino group of the Lysine side chain with (2-[2-(2-Amino-ethoxy)-ethoxy]-acetyl)-(gamma-Glu)-CO-(CH2) 18-CO2H; SITE 20: n) [Example 1]
CAT: H
--
BINDER: YXQGTXTSDXSIXLDKKAQXAFIEYLSEGGPSSGEPPPSGSEE (Lys acylated (γ-Glu)2-C18 diacid; non-natural residues; C-terminal amide; synthetic construct; SITE 2: note = 2-Aminoisobutyric Acid; SITE 6: note = alpha-methyl-2-fluoro-L-phenylalanine; SITE 10: note = 3-(4-Pyridyl)-L-alanine; SITE 13: note = alpha-methyl-leucine; SITE 17: note = Lysine is chemically modified through conjugation of the epsilon-amino group of the Lysine) [Example 632]
CAT: H
--
BINDER: YXQGTXTSDXSIXLDKKAQXAFIEYLEEGGPSSGAPPPEGTGE (non-natural residues; acylated Lys; C-terminal amide; synthetic construct; SITE 2: note = 2-Aminoisobutyric Acid; SITE 6: note = alpha-methyl-2-fluoro-L-phenylalanine; SITE 10: note = 3-(4-Pyridyl)-L-alanine; SITE 13: note = alpha-methyl-leucine; SITE 17: note = Lysine is chemically modified through conjugation of the epsilon-amino group of the Lysine) [Example 626]
CAT: L
--
BINDER: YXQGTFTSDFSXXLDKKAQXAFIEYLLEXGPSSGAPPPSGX (Aib, Orn, αMeL, 4Pal; lipidated Lys; C-terminal amide; synthetic construct; SITE 2: note = 2-Aminoisobutyric Acid; SITE 12: note = L-ornithine; SITE 13: note = alpha-methyl-leucine; SITE 17: note = Lysine is chemically modified through conjugation of the epsilon-amino group of the Lysine side chain with (2-[2-(2-Amino-ethoxy)-ethoxy]-acetyl)-(gamma-Glu)) [Example 279]
CAT: L
--
BINDER: YXQGTXTSDXSIXLDKKAQXAFIEYLEEGGPSSGEPPPEGTGE (non-natural residues; lipidated Lys; C-terminal amide; synthetic construct; SITE 2: note = 2-Aminoisobutyric Acid; SITE 6: note = alpha-methyl-2-fluoro-L-phenylalanine; SITE 10: note = 3-(4-Pyridyl)-L-alanine; SITE 13: note = alpha-methyl-leucine; SITE 17: note = Lysine is chemically modified through conjugation of the epsilon-amino group of the Lysine) [Example 628]
CAT: M
--
BINDER: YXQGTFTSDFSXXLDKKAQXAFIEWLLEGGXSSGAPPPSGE (Aib, Orn, αMeL, 4Pal; AEEA-γGlu-C18 diacid on Lys; amide; synthetic construct; SITE 2: note = 2-Aminoisobutyric Acid; SITE 12: note = L-ornithine; SITE 13: note = alpha-methyl-leucine; SITE 17: note = Lysine is chemically modified through conjugation of the epsilon-amino group of the Lysine side chain with (2-[2-(2-Amino-ethoxy)-ethoxy]-acetyl)-(gamma-Glu)) [Example 267]
CAT: H
--
BINDER: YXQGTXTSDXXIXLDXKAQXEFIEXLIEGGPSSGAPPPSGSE (non-natural residues; AEEA-(γGlu)2-C18 diacid on Lys; amide; synthetic construct; SITE 2: note = 2-Aminoisobutyric Acid; SITE 6: note = alpha-methyl-2-fluoro-L-phenylalanine; SITE 10: note = 3-(4-Pyridyl)-L-alanine; SITE 11: note = alpha-methyl-L-serine; SITE 13: note = alpha-methyl-leucine; SITE 16: note = L-ornithine; SITE 17: note = Lysine is chemically mo) [Example 1178]
CAT: L
--
BINDER: YXQGTXTSDXSIXLDKKAQXAFIEYLEEGGPSSGAPPPSGTGE (Aib, αMeF(2F), 4Pal, αMeL; acylated lysine; amide; synthetic construct; SITE 2: note = 2-Aminoisobutyric Acid; SITE 6: note = alpha-methyl-2-fluoro-L-phenylalanine; SITE 10: note = 3-(4-Pyridyl)-L-alanine; SITE 13: note = alpha-methyl-leucine; SITE 17: note = Lysine is chemically modified through conjugation of the epsilon-amino group of the Lysine) [Example 622]
CAT: M
